Recorded Blocking ratio at 66.7 nM (%) values for a group of binders are listed next.
Biological target: T1, human LAG3 ECD recombinant protein (plate coated, tag not stated) (human, UniProt P18627 23-450)
T1 construct: extracellular domain
T1 sequence (looked up): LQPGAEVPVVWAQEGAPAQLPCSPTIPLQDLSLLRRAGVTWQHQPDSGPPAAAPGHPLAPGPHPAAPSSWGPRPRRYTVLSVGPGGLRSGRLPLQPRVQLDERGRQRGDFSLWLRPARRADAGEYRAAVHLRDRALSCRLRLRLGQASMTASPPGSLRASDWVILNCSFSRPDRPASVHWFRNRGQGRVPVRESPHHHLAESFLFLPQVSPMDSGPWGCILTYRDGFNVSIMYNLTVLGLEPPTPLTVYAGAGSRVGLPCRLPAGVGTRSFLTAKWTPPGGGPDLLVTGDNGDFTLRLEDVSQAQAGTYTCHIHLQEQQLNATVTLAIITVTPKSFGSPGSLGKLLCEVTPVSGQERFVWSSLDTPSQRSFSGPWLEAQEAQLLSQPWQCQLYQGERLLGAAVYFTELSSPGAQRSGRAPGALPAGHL
Experiment: competitive ELISA format I: His-FGL1 binding to coated LAG3 ECD
Response body: numeric value in %, unit text excluded.

Consider the following illustrative entries.
binder	Blocking ratio at 66.7 nM (%)
039c (antibody, human IgG4, V domains shown, human IgG4 S228P / kappa chimeric antibody; also called chimeric antibody 039; not shown: human kappa light chain constant region (pcDNA3.4-hIgGk vector)) VH: EFQLQQSGPELVKPGASVKISCKASGYSFTDYNLNWVRQSNGKSLEWIGLVDPIYGTIRYNQNFKDKATLTVDQSSSTAYMQLNSLTSEDSAVYYCASIMTAVRYFDHWGQGTTLTVSS VL: DVLMTQTPLFLPVSLGDQASISCRSSLNIVHSDGNTYLEWYLQKPGQSPKLLIYKVSNRFSGVPDRFSGSGSGTDFTLKISGVEAEDLGVYYCFQGSHVPPTFGGGTKLEIK	40.2
027c (antibody, human IgG4, V domains shown, human IgG4 S228P / kappa chimeric antibody; also called chimeric antibody 027; not shown: human kappa light chain constant region (pcDNA3.4-hIgGk vector)) VH: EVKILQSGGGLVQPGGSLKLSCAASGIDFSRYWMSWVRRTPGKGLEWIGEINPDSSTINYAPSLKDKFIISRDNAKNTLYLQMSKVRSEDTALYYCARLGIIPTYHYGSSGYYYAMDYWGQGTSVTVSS VL: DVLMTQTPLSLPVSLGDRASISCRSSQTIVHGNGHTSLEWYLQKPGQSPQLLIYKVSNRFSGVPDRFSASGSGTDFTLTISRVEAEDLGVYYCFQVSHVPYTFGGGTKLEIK	26.7

Need Blocking ratio at 66.7 nM (%), item 033c (antibody, human IgG4, V domains shown, human IgG4 S228P / kappa chimeric antibody; also called chimeric antibody 033; not shown: human kappa light chain constant region (pcDNA3.4-hIgGk vector)) VH: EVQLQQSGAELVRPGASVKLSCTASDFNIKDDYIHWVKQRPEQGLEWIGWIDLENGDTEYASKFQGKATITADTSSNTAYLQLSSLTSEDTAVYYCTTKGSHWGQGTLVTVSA VL: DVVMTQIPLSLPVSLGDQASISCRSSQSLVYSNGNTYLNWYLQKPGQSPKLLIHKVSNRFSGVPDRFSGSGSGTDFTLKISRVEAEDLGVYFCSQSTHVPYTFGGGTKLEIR
67.8
